Origin of measurements: ChEMBL document CHEMBL5291721

AC50, Gamma-aminobutyric acid receptor subunit alpha-1 (Rattus norvegicus, UniProt P62813), per-entry values.

Worked cases, AC50 given:
CCOC(=O)O[C@]1(C(=O)OCCl)CC[C@H]2[C@@H]3CCC4=CC(=O)C=C[C@]4(C)[C@H]3[C@@H](O)C[C@@]21C [LOTEPREDNOL ETABONATE]; > 30 µM
C=CCNc1nc(NCC=C)nc(N2CCN(C(c3ccc(F)cc3)c3ccc(F)cc3)CC2)n1; > 30 µM

Lab note: next compound to report on.
Q: Data request, read-out AC50, for COc1ccccc1OCCNCC(O)COc1cccc2[nH]c3ccccc3c12 (configuration not stated)
Result: > 10 µM

----------
- Target Of Assay: Voltage-dependent L-type calcium channel subunit alpha-1C (Rattus norvegicus, UniProt P22002)
- Sequence (P22002 whole entry): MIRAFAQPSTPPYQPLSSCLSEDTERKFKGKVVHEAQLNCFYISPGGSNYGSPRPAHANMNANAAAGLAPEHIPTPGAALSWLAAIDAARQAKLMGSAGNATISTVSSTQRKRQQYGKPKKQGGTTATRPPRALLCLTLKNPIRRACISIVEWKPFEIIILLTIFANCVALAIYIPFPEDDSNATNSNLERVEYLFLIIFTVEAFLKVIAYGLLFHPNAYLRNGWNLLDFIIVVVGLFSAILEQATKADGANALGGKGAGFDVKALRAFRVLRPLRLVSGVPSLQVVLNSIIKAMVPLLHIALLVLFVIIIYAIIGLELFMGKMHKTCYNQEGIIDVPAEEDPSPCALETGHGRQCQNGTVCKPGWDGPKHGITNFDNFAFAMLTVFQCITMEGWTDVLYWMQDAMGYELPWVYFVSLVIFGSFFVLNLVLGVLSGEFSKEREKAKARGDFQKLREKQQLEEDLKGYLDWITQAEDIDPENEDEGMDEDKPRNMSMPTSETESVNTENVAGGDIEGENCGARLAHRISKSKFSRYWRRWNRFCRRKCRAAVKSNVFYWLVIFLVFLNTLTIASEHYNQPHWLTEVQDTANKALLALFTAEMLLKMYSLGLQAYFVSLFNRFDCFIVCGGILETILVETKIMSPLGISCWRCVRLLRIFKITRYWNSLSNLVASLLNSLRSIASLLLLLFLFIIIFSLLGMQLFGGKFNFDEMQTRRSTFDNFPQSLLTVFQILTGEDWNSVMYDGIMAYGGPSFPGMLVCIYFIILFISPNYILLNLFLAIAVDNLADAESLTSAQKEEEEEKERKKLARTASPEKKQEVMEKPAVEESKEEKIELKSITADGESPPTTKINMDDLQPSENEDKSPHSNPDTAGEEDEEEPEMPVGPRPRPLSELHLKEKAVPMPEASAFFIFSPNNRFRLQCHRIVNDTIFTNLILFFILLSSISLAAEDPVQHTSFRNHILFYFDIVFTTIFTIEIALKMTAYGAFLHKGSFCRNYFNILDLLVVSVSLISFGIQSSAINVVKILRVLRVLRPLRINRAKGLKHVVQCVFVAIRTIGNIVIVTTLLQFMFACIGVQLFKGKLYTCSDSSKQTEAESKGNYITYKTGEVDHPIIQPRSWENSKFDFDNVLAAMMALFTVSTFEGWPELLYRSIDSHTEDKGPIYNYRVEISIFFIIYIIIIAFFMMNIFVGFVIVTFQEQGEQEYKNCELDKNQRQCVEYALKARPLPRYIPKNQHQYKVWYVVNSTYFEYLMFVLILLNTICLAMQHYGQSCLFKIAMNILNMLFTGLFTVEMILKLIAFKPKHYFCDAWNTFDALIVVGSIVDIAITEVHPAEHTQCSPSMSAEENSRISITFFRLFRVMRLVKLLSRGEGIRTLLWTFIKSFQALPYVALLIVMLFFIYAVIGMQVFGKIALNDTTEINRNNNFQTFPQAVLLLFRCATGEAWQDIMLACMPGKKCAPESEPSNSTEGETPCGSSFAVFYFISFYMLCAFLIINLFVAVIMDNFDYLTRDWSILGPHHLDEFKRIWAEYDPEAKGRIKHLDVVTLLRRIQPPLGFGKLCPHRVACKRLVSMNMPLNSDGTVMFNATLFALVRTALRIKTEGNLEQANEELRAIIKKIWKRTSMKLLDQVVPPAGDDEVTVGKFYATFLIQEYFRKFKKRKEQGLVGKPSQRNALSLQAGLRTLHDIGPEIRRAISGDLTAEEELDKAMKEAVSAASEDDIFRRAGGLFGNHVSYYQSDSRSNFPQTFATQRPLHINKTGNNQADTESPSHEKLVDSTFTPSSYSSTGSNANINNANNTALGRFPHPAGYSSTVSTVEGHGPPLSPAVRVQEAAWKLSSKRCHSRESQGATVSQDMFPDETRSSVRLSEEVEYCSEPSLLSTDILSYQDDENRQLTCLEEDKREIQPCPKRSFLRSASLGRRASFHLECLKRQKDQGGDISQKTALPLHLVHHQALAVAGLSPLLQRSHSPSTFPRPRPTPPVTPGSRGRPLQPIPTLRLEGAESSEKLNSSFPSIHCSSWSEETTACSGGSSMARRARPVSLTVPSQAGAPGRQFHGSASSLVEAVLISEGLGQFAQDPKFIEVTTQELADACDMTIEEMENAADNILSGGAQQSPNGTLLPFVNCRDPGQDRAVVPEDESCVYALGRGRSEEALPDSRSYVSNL
- Assay type: functional
Endpoint Label: AC50

Known results for compounds:
Cn1c(=O)cc(N2CCC[C@@H](N)C2)n(Cc2ccccc2C#N)c1=O [ALOGLIPTIN]; > 10000 nM
C[C@]12C=CC(=O)N[C@@H]1CC[C@@H]1[C@@H]2CC[C@]2(C)[C@@H](C(=O)Nc3cc(C(F)(F)F)ccc3C(F)(F)F)CC[C@@H]12 [DUTASTERIDE]; > 10000 nM
C[C@@H](Oc1cc(-c2cnn(C3CCNCC3)c2)cnc1N)c1c(Cl)ccc(F)c1Cl [CRIZOTINIB]; 1560 nM

Then there is this compound:
Q: Query: AC50; subject: CCOC(=O)C1=C(C)NC(C)=C(C(=O)OC)C1c1cccc([N+](=O)[O-])c1 (centres undefined) [NITRENDIPINE]
Result: 0.4 nM

----------
- Target Of Assay: Voltage-dependent L-type calcium channel subunit alpha-1C (Homo sapiens, UniProt Q13936)
- Sequence (Q13936 whole entry): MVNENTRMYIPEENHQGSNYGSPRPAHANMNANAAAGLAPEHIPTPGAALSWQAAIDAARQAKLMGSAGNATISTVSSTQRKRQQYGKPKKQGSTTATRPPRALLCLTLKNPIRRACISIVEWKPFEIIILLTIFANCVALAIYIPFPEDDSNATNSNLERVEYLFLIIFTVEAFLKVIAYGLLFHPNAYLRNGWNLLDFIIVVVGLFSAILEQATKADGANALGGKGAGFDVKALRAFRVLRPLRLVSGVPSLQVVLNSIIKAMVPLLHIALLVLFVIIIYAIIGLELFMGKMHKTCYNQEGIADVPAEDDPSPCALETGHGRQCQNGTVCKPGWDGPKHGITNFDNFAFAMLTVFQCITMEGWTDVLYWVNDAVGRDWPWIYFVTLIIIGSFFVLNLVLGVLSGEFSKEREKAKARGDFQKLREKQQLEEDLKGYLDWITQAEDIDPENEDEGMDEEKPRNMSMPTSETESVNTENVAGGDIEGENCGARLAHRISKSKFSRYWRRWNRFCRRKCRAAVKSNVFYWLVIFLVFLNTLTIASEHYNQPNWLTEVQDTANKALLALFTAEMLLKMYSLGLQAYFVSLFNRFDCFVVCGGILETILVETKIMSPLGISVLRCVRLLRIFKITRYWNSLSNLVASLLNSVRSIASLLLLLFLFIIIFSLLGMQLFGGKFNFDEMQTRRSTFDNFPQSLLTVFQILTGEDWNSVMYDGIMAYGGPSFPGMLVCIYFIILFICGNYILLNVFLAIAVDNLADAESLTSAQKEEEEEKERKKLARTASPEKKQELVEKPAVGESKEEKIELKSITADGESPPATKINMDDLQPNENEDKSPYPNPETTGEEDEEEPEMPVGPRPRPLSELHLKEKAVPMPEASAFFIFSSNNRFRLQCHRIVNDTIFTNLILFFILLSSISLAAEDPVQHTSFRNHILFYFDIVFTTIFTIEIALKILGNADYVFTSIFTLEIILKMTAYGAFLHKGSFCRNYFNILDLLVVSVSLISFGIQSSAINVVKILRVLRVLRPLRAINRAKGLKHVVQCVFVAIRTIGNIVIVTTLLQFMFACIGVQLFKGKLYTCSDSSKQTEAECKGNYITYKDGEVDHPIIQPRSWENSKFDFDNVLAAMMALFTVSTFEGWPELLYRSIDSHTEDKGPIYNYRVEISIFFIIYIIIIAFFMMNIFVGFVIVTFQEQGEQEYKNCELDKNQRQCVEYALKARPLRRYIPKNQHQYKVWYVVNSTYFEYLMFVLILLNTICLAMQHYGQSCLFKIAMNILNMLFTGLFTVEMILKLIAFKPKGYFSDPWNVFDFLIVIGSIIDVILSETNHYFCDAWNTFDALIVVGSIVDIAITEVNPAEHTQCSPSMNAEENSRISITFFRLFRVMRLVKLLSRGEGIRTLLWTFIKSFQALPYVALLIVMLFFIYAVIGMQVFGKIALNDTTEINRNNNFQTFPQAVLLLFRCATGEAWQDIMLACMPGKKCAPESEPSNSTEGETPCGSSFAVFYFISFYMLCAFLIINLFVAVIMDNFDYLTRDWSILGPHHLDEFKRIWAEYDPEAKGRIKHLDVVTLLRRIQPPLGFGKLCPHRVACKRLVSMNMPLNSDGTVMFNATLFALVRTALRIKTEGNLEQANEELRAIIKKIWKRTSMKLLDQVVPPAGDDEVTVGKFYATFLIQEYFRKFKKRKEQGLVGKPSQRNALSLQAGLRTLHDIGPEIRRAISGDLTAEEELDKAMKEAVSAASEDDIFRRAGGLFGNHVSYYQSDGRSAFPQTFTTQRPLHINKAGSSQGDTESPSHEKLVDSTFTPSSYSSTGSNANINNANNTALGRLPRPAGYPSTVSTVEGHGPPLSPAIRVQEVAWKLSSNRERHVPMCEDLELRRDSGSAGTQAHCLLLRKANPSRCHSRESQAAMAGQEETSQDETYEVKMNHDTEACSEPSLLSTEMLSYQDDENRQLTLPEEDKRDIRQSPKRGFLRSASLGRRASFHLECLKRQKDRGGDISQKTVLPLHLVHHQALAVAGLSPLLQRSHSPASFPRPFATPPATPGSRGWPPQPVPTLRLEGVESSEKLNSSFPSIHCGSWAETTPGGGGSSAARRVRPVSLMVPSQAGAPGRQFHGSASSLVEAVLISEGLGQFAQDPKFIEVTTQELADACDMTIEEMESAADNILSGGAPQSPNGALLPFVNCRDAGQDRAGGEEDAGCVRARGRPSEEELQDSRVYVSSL
- Assay type: functional, cell-based
Endpoint Label: AC50

C=CC[C@@H]1/C=C(\C)C[C@H](C)C[C@H](OC)[C@H]2O[C@@](O)(C(=O)C(=O)N3CCCC[C@H]3C(=O)O[C@H](/C(C)=C/[C@@H]3CC[C@@H](O)[C@H](OC)C3)[C@H](C)[C@@H](O)CC1=O)[C@H](C)C[C@@H]2OC [TACROLIMUS ANHYDROUS]; > 50 µM
C[C@@H](Oc1cc(-c2cnn(C3CCNCC3)c2)cnc1N)c1c(Cl)ccc(F)c1Cl [CRIZOTINIB]; > 30 µM
c1ccc(C2(c3ccccc3)CC2C2=NCCN2)cc1 (stereo not given) [CIFENLINE]; > 50 µM
CC(C)N(CCC(C(N)=O)(c1ccccc1)c1ccccn1)C(C)C (stereo not given) [DISOPYRAMIDE]; > 50 µM

Q: What is its AC50 for Voltage-dependent L-type calcium channel subunit alpha-1C (Homo sapiens, UniProt Q13936)? Entry: OC1(c2ccc(Cl)cc2)c2ccccc2C2=NCCN21 (stereo not given) [MAZINDOL]
Result: > 50 µM

----------
What follows is a record of AC50 for UniProt:Q01959.
Sequence (Q01959 whole entry): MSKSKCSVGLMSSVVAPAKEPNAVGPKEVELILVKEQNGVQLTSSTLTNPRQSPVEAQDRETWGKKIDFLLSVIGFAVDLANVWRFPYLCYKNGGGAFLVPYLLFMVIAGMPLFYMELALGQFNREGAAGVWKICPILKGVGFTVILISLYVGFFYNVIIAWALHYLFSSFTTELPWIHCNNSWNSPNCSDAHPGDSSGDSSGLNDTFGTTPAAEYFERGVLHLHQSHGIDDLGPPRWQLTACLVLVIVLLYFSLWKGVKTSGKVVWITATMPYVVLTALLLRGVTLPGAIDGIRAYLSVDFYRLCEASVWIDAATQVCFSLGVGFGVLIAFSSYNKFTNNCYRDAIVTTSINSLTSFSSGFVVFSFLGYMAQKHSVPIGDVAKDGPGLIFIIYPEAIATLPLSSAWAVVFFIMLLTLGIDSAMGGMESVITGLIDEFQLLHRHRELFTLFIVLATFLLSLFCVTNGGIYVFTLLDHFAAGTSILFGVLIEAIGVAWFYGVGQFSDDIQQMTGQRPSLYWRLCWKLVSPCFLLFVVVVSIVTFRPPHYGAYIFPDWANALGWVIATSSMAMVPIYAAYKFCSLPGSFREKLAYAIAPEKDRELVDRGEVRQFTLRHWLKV

Cc1cc(C(C)(C)C)cc(C)c1CC1=NCCN1 [XYLOMETAZOLINE]; > 30 µM
[H]/N=C(/N)N/C(=N/[H])NCCc1ccccc1 [PHENFORMIN]; 25.2 µM
C[C@H]1c2cccc(O)c2C(=O)C2=C(O)[C@]3(O)C(=O)C(C(N)=O)=C(O)[C@@H](N(C)C)[C@@H]3[C@@H](O)[C@@H]21 [DOXYCYCLINE]; > 10 µM
CN(C)CCc1c[nH]c2ccc(Cn3cncn3)cc12 [RIZATRIPTAN]; > 10 µM
CC(C(=O)O)c1ccc2c(c1)[nH]c1ccc(Cl)cc12 (stereo not drawn) [CARPROFEN]; > 30 µM
Cc1onc(-c2ccccc2)c1-c1ccc(S(N)(=O)=O)cc1 [VALDECOXIB]; > 30 µM
CCCCCCCCCCCCCCCCCCCCCC(=O)Nc1ccn([C@@H]2O[C@H](CO)[C@@H](O)[C@@H]2O)c(=O)n1 [ENOCITABINE]; > 30 µM
CCN(CC)CCN1C(=O)CN=C(c2ccccc2F)c2cc(Cl)ccc21 [FLURAZEPAM]; > 30 µM
CCOC(=O)C1=C[C@]2(CC)CCCN3CCc4c(n1c1ccccc41)[C@@H]32 [VINPOCETINE]; 21 µM
CNCc1ccc(-c2[nH]c3cc(F)cc4c3c2CCNC4=O)cc1 [RUCAPARIB]; > 30 µM

Q: Given the entry O=C1C(CC[S+]([O-])c2ccccc2)C(=O)N(c2ccccc2)N1c1ccccc1 (stereo not drawn) [SULFINPYRAZONE] , report its measured AC50.
Result: > 10 µM

Q: Moving on to the next compound: COc1cc2nc(N3CCN(C(=O)C4CCCO4)CC3)nc(N)c2cc1OC (stereo not drawn) [TERAZOSIN]
Result: > 10 µM

Q: For "C[N@+]1(CCF)[C@@H]2CC[C@H]1C[C@@H](OC(=O)C(O)(c1ccccc1)c1ccccc1)C2" then?
Result: > 30 µM

Q: Would you kindly repeat that for CCCN(CCC)C(=O)Cc1c(-c2ccc(Cl)cc2)nc2ccc(Cl)cn12 [ALPIDEM] ?
Result: > 30 µM

Q: Entry CC(=O)[C@@]1(O)CC[C@H]2[C@@H]3C=C(Cl)C4=CC(=O)[C@@H]5C[C@@H]5[C@]4(C)[C@H]3CC[C@@]21C [CYPROTERONE] please
Result: > 10 µM

Q: Please do the same for CC(=O)N[C@@H](CS)C(=O)O [ACETYLCYSTEINE] as well.
Result: > 30 µM

Q: Continue with CCOC(=O)c1cncn1[C@H](C)c1ccccc1 [ETOMIDATE]
Result: > 10 µM

Q: Now this one: "CC(=O)SC[C@@H](C)C(=O)N1CCC[C@H]1C(=O)N[C@@H](Cc1ccccc1)C(=O)O"
Result: > 30 µM
